# ASSAY TARGET: T1, human ASGR-1 (wild type) (human, UniProt P07306 1-291)
# T1 construct: also called wt ASGR1; huASGR-1
# T1 sequence: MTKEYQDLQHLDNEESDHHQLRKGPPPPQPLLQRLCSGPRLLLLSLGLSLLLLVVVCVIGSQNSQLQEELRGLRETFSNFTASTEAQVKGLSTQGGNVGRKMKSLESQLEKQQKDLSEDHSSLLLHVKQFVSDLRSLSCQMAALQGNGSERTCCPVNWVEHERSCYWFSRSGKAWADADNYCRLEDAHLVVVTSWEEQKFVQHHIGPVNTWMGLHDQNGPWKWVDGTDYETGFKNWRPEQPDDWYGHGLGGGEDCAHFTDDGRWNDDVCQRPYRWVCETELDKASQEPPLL
# TEST METHOD NOTES: flow cytometry, CHO-S:huASGR-1 cells, 11-point titration
# Protocol: CHO—S stable high-expressing cell line were developed for both human ASGR-1 as well as mouse ASGR-1. […] 60 ul of PI (1:1000) was added and then the cells were read by a core flow cytometry facility. […]
This listing pairs binders with measured EC50.
The response must be a number in nM with no trailing unit.

Record excerpt, results attached:
7G4 (antibody, V domains shown, mAb) VH: QVQLVESGGGVVQPGRSLRLSCAASGFTFNNYVMHWVRQAPGKGLEWVAVIWYDGSNKYYADSVKGRFTISRDNSKNTLYLQMTSLRAEDTAVYYCAREKYSSNWYDYGMDVWGQGTTVTVSS VL: DIQMTQSPSSLSASVGDRVTITCRASQGIRNDLGWYQQRPGKAPKRLIYAASSLQSGVPSRFSGSGSGTEFTLTISSLQPEDSATYYCLHQYSYPRTFGQGTKVEIK :: 0.69
56E5 (antibody, V domains shown, mAb) VH: QVQLVQSGAEVKKPGASVKVSCQASGYTFTGYHMHWVRQAPGQGLEWMGWINPNNNATNYAQKFQGRVTMTRDTSISTAYMELRRLRSDDTAVYHCARDGTSSFDYWGQGTLVTVSS VL: DIQMTQSPSSVSASVGDRVTITCRASQGIRKWLAWYQQKPGKAPKLLIYAASSLQSGVPSRFSGSGSGTDFTLTISSLQPEDFATYYCQQANSFPFTFGPGTKVDIK :: 1.1
7E11 (antibody, V domains shown, mAb) VH: QVQLVESGGGVVQPGRSLRLSCAASGFTFSSFGMHWVRQAPGKGLEWVAIIWHDGSNKYYADSVKGRFTISRDNSNNTLYLQMSSLRAEDTAVYYCARDLSMGGMDVWGQGTTVTVSS VL: DIQMTQSPSSLSASVGDRVTIACRASQNIISYLNWYQQKPGKAPKFLIYTASSLQSGVPSRFSGSGSGTDFTLTISSLQPEDFAIYYCQQTYSTPLTFGGGTKVEIK :: 1.4
191G10 (antibody, V domains shown, mAb) VH: QVQLVESGGGVVQPGRSLRLSCAASGFTFSSYGMHWVRQAPGKGLEWVAVIWYDGSNKNYADSVKGRFTISRDNSKNTLYLQMNSLRAEDTAVYYCARDQGVGYDGLDVWGQGTTVTVSS VL: DIQMTQSPSSLSASVGDRVTITCRTSQGIGKYLAWFQQKPGKAPKSLLYKVSSLQSGVPSKFSGSGSGTDFTLTISSLQPEDFATYYCQQYMTYPLTFGGGTKVEIK :: 0.31

Could you tell me which EC50 is on file for 22G5 (antibody, V domains shown, mAb) VH: EVQLLESGGGLVQPGGSLRLSCAASGFTFSSYAMNWVRQAPGMGLEWVSVISRSGGYTYYADSVKGRFTISRDNSKNTLYLQMNSLRAEDTAVYYCASRLAVAGSEAFDIWGQGTLVTVSS VL: DIQMTQSPSSLSASVGDRVTITCRASQNISSYLNWYQQKQGKAPKLLIYAASSLQNGVPSRFSGRGSGTDFTLTISSLQPEDFATYYCQQSYRTPLFTFGPGTKVDFK ?
7.2

Entry 72G9 (antibody, V domains shown, mAb) VH: EVQLVESGGGLVKPGGSLRLSCAASGFTFSSYSMNWVRQAPGKGLEWVSSISGSSSYIYYADSVKGRFTISRDNAKNSLYLQMNSLRAEDTAVYFCARGGSRGFDPWGQGTLVTVSS VL: DIQMTQSPSSLSASVGDRVTITCRASQSITSYLNWYQQKPGKAPKLLIYTASSLQSGVPSRFSGSGSGTDFTLTISSLQPEDFATYYCQQSHSFPFTFGPGTKVDIK has what EC50?
0.41

# lookup: EC50 of 75G3 (antibody, V domains shown, mAb) VH: QVQLQQWGAGLLKPSETLSLTCAVYGGSLSGSYWSWIRQPPGKGLEWIGEINLSGSTNYNPSLKSRVTISVDTSKSQFSLTLRSVTAADTAVYYCARDYGGLDYWGQGTLVTVSS VL: EIVLTQSPGTLSLSPGERATLSCRARQNVDSSYLAWYQQKPGQAPRLLIYGASSRATGIPDRFSGSGSGTDFTLTISRLEPEDFAVFYCQQYERSPWTFGQGTKVEIK
1

// query EC50 value for entry 4A2 (antibody, V domains shown, mAb) VH: QVQLVQSGTEVKKPGASVKVSCKASGYTFTNYDINWVRQATGQGLEWMGWMHPNSGNTGYAQKFQGRVTLTRNTSISTAYMELSSLRSEDTAVYYCASSSGWYYFDYWGQGTLVTVSS VL: DIVMTQSPDSLAVSLGERATINCKSSQSILHSSNNNNYLAWFQQKPGQPPKLLLYWASTRESGVPDRFSGSGSGTDFTLTISSLQPEDVAVYYCQQYYNTPVTFGPGTKVGIK
0.82

Which EC50 is listed for 190F8 (antibody, V domains shown, mAb) VH: QVQLVESGGGVVQPGRSLRLSCAASGFTFSTYGMHWVRQAPGKGLEWVAVIWYDGSNKNYADSVKGRFTISRDNSKNTLYLQMNSLRAEDTAVYYCARDQGVGYDGLDVWGQGTTVTVSS VL: DIQMTQSPSSLSASVGDRVTITCRTSQGIGNYLAWFQQKPGKAPKSLLYKASSLQSGVPSKFSGSGSGTDFTLTISSLQPEDFATYYCQQYMTYPLTFGGGTKVEIK ?
9

So what's the measured EC50 for this one? 184E7 (antibody, V domains shown, mAb) VH: QVQLVQSGAEVKTPGASVKVSCRASGYTFTSYNMHWVRQVPGQGLEWMGWINPNNGGSNYTQKFQGRVTMTRDTSISTAYMELSRLRSDDTAVYYCARKFGDWGQGTLVTVSS VL: DIQMTQSPSSRSASIGERVTITCRASQGISNYLAWIQQKPGTAPKSLIYAASSLQSGVSSRFSGSGFGTDFTITISSVQREDFATYYCQQYNGYPFTFGHGTKVDIK
1
